Biological target: T1, human MSLN-R3 protein (human, UniProt Q13421 487-598)
T1 construct: also called hMSLN-R3
T1 sequence (Q13421 495-606, form in doubt): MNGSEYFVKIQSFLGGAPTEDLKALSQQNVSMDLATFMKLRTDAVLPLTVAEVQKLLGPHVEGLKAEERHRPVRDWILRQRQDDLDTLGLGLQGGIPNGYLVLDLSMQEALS
Assay: ELISA on coated antigen, antibody 100 nM
measured-property: OD450 (OD450)
// return numeric value only (unit: OD450, not printed)

binder="F7.33.24-H9 (scFv, not shown: small tags and cut ends, also called S009-F7.33.24 humanized antibody VH2 + VL3) scFv: EVQLVQSGAEVKKPGASVKVSCKASGYTFTSYWMHWVRQAPGQGLEWMGNVNPSNGGSNYNEKFKNRVTITVDKSASTAYMELSSLRSEDTAVYYCAPHYIGSRPGFAYWGQGTLVTVSSGGGGSGGGGSGGGGSDIVMTQTPLSLSVTPGQPASISCKASQNVGTNIAWYQQKPGQSPQALIYSASYRYSGVPDRFSGSGSGTDFTLKISRVEAEDVGVYYCQQYNSYPLTFGGGTKVEIK" measured_property=OD450 unit_abbreviation=OD450 assay_result=2.25
binder="F7.33.24-H5 (scFv, not shown: small tags and cut ends, also called S009-F7.33.24 humanized antibody VH1a + VL2) scFv: EVQLVQSGAEVKKPGASVKVSCKASGYTFTSYWMHWVRQAPGQRLEWMGNVNPSSGGSNYNEKFKNRVTITVDKSASTAYMELSSLRSEDTAVYYCAPHYIGSRPGFAYWGQGTLVTVSSGGGGSGGGGSGGGGSDIVMTQTPLSLSVTPGQPASISCKASQNVGTNIAWYLQKPGQSPQALIYSASYRYSGVPDRFSGSGSGTDFTLKISRVEAEDVGVYYCQQYNSYPLTFGGGTKVEIK" measured_property=OD450 unit_abbreviation=OD450 assay_result=1.92

Please turn your attention to the following entry.
Q. Suppose we examine the binder F7.33.24-H6 (scFv, not shown: small tags and cut ends, also called S009-F7.33.24 humanized antibody VH1a + VL3) scFv: EVQLVQSGAEVKKPGASVKVSCKASGYTFTSYWMHWVRQAPGQRLEWMGNVNPSSGGSNYNEKFKNRVTITVDKSASTAYMELSSLRSEDTAVYYCAPHYIGSRPGFAYWGQGTLVTVSSGGGGSGGGGSGGGGSDIVMTQTPLSLSVTPGQPASISCKASQNVGTNIAWYQQKPGQSPQALIYSASYRYSGVPDRFSGSGSGTDFTLKISRVEAEDVGVYYCQQYNSYPLTFGGGTKVEIK ; what OD450 value has been reported?
A. 1.98
